System: A549
Protocol notes: Antiproliferative activity against human A549 cells
Assay type: functional, cell-based
Measured endpoint: IC50

Solved cases (3 shown):
1. Cn1cc(-c2cnc3ccc(NC(=O)NCc4ccccc4)nc3c2)cn1 = > 50 µM
2. CCNC(=O)Nc1ccc2ncc(-c3ccc(OC)c(OC)c3)cc2n1 = > 50 µM
3. CCNC(=O)Nc1ccc2ncc(-c3ccc(OC)cc3)cc2n1 = > 50 µM

Query :: Param item = `COc1ccc(-c2cnc3ccc(NC(=O)NC(C)(C)C)nc3c2)cc1OC` ; retrieve measured IC50.
Result :: > 50 µM

###

In this section we review reported pIC50 values for a set of compounds.
Tested on: MDA-MB-468
Protocol notes: Antiproliferative activity against human MDA-MB-468 cells
Assay type: functional, cell-based
pIC50: −log10 of the molar value.

Known results for compounds:
1) CCNC(=O)Nc1ccc2ncc(-c3ccc(OC)cc3)cc2n1 = < 4.30
2) Cn1cc(-c2cnc3ccc(NC(=O)NCc4ccccc4)nc3c2)cn1 = < 4.30

Here is the next item to consider.
Query :: // lookup pIC50 for `COc1ccc(-c2cnc3ccc(NC(=O)NC(C)(C)C)nc3c2)cc1OC`
Result :: < 4.30
